Entry source: patent EP4813381A1

Test: Conversion rate of salt-form prodrugs to parent compound in mouse plasma
Assay type: in vitro ADME
Conditions: conversion to Compound 1, mouse plasma, 37 °C, 1 h
Here the recorded Release rate is given for each entry.
Number only, in %; omit the unit.

Here are 2 compounds together with their reported answers.
# molecular_string, recorded_number
rows = [
    ("C[C@@]12CC[C@@H]3[C@H](OC(=O)[C@H]3CN3CCOCC3)[C@@H]3[C@]1(CC[C@@]3(C)O)C2", 6.8),
    ("CCCN(CCC)C[C@@H]1C(=O)O[C@H]2[C@H]1CC[C@@]1(C)C[C@]13CC[C@@](C)(O)[C@H]23", 6.8),
]

Reported Release rate, compound `CCOC(=O)[C@@H]1CCCN1C[C@@H]1C(=O)O[C@H]2[C@H]1CC[C@@]1(C)C[C@]13CC[C@@](C)(O)[C@H]23` : ____
7.2
